melting point values for the compounds below.

COMPOUND	UNITS LABEL	melting point
CC1CN1 (centres undefined)	°C	-65
CCn1c2ccccc2c2cc(N)ccc21	°C	99
C=C1CC[C@H]2O[C@]2(C)CC[C@@H]2[C@@H]1CC2(C)C	°C	62.5
c1ccc(-c2ccc(-c3ccccc3)cc2)cc1	°C	210
CC1CC=CC1	°C	-161
CCOCCOC(=O)C(C)Oc1ccc(Oc2ncc(C(F)(F)F)cc2Cl)cc1 (centres undefined)	°C	60
C=C[C@@]1(C)C=C2CC[C@@H]3[C@](C)(CCC[C@@]3(C)C(=O)O)[C@H]2CC1	°C	218
O=C(O)c1cc(I)c(I)c(I)c1	°C	292
C1CCC(C2CCCCC2)CC1	°C	4
CCCc1cc(C(N)=S)ccn1	°C	137
CN(C)c1ccccc1[N+](=O)[O-]	°C	-20
CC(C)SC(C)C	°C	-78.1
Cc1c(C)c([N+](=O)[O-])c(C(C)(C)C)c([N+](=O)[O-])c1C	°C	136
CC(C)[C@@H](C)CC[C@@H](C)[C@H]1CC[C@H]2C3=CC[C@H]4C[C@@H](O)CC[C@]4(C)[C@H]3CC[C@]12C	°C	146

----------
SMILES STRING	log10 vapour pressure (mmHg)
CON=C(C)c1cccc(Oc2nc(OC)cc(OC)n2)c1C(=O)OC	-6.64
C1=COCC1	2.4
O=C(NC(=O)c1c(F)cccc1F)Nc1ccc(Cl)cc1	-9.05
Nc1ccc(N=Nc2ccc([N+](=O)[O-])cc2)cc1	-9.52
CCOC(=O)NCCOc1ccc(Oc2ccccc2)cc1	-8.2
O=C1CCCCC1	0.636
CCC[N+](=O)[O-]	1
C#CCCCCCCC	0.797

----------
log10 vapour pressure (mmHg) values for the compounds below.
REPORTED METRIC: log10 vapour pressure (mmHg)

SMILES STRING	NUMERIC RESULT
CCCC(=O)OC	1.51
CCCCOC(=O)CCCCCCCCC(=O)OCCCC	-5.33
N#CCON=C(C#N)c1ccccc1	-0.457
CCCCCCCCCCCCS	-2.07
CCN=C=S	1.06
CC(C)(C)C(=O)O	-0.301
c1ccc2c(c1)Cc1c-2ccc2ccccc12	-6.61
C=CCCCCCCCCCC	-0.797
CCCCF	2.76

----------
melting point values for the molecules below.

MOLECULE	melting point (°C)
CN1CCc2c(c3ccccc3n2Cc2ccccc2)C1	95
CCC(COCCOc1c(I)cc(I)c(NC(C)=O)c1I)C(=O)O (configuration not stated)	130
COc1ccc(COC(C)=O)cc1	84
C[C@]12CC[C@H](O[C@@H]3O[C@H](CO[C@@H]4O[C@H](CO)[C@@H](O)[C@H](O)[C@H]4O)[C@@H](O)[C@H](O)[C@H]3O)C[C@@H]1CC[C@@H]1[C@@H]2CC[C@]2(C)[C@@H](C3=CC(=O)OC3)CC[C@]12O	269
CCOC(=O)C(=O)C(=O)OCC	-30
CCCCCCCCCCS	-26
CC[C@@H](CO)NC(=O)[C@@H]1C=C2c3cccc4[nH]cc(c34)C[C@H]2N(C)C1	172
CC(Oc1ccc2ccccc2c1)C(O)=Nc1ccccc1 (configuration not stated)	128
CCCCCCCCCCC(=O)O	28.6
c1ccc(P(c2ccccc2)c2ccccc2)cc1	80
Brc1cccc(Br)c1	-7
CCCC(C)(C)O	-103
COC(C)(C)C	-109
C[C@]12CC[C@H](O)C[C@H]1CC[C@@H]1[C@@H]2C[C@@H](O)[C@]2(C)[C@@H](C3=CC(=O)OC3)CC[C@]12O	222
Nc1ccc(I)cc1	67.5
COc1ccc([N+](=O)[O-])cn1	108
COP(=O)(OC)OC(=CCl)c1cc(Cl)c(Cl)cc1Cl	96.3
Cc1cccc(C)c2cc(C(C)C)cc1-2	32.3
C=C1CCCCC1	-107
BrCCCCCCCCCCCCCCBr	50.4
C[Si]1(C)O[Si](C)(C)O[Si](C)(C)O[Si](C)(C)O[Si](C)(C)O1	-38
COc1ccccc1N	6.2
Brc1ccc(Br)s1	-6
CCCCCCCCCCCCCl	-9.3
COP(=S)(OC)Oc1ccc(SC)c(C)c1	7.5
Cc1ccc([N+](=O)[O-])cc1C	30.5
O=Cc1ccc(Oc2ccccc2)cc1	24.5
